Listing: GI50 of selected compounds
- Test system: UACC-62
- Procedure text: NCI tumour cell line growth inhibition, 48 h
Calls of active or inactive are those of the source. Rule as the data show it: active = GI50 up to about 1.1 µM and inactive = higher.

COc1cccc2c1C1(O)C2CCCC12OCCCO2 (stereo not given) :: > 100 µM (inactive)

-- ask Looking for the measured GI50 of CC(C)n1c(=O)c2nn3c(=O)n(C(C)C)c(=O)c3nn2c1=O , can you help?
-- reply > 100 µM (inactive)

-- ask Then what about the compound NNC(=O)C(O)C(O)C(=O)NN (stereo not given) ?
-- reply > 100 µM (inactive)

-- ask Now the compound CC1=CC(=O)/C(=C/n2c(=S)[nH]c3ccc([N+](=O)[O-])cc32)C(=O)O1
-- reply > 100 µM (inactive)
